B1: Peroxisome proliferator-activated receptor delta, residues 71 to 145; numbered along this chain, Q03181 (parent)
chain: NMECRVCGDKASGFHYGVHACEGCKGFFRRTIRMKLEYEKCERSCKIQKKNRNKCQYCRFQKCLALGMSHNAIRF

Variants of: B1
Experiment description: abundance fitness (aPCA) (normalised: wild type 0, dead -1); higher = more abundant; growth selection in yeast, the domain comes from the species named
Condition parameters: Homo sapiens
Parameter: abundance fitness
Answers are plain numbers.

Solved entries (count: 5):
R74E ... 0.259
M2T ... -0.156
M2F ... -0.432
K62L ... -0.318
T31S ... -0.043

Please look at the items below and tell me abundance fitness for each one, in order.
1. C63M
2. Q61H
3. Q61D
4. R43V
5. C45G
6. S69T

Ans.
-0.063
-0.248
-0.751
-0.158
-0.787
-0.013
